# Experiment Description: Cytotoxicity against Influenza A virus (A/Viet Nam/1203/2004(H5N1)) infected MDCK cells
# Assay type: cell-based, Canis lupus familiaris
# Assay Setup: dog
Endpoint Label: CC50

INSERT INTO measurements (record_smiles, observed_measurement) VALUES
  ('COC(=O)[C@]1(C)CCC[C@]2(C)[C@H]3C[C@H]4C(C(C)C)=C[C@]3(CC[C@H]21)[C@@H]1C(=O)OC(=O)[C@@H]14', '32 µM'),
  ('COC(=O)[C@]1(C)CCC[C@]2(C)[C@H]3C[C@H]4C(C(C)C)=C[C@]3(CC[C@H]21)[C@@H]1C(=O)CC[C@H](O)[C@@H]14', '> 100 µM'),
  ('CC(C)C1=C[C@@]23CC[C@H]4[C@](C)(COC(=O)/C=C/c5ccccc5)CCC[C@]4(C)[C@H]2C[C@@H]1[C@@H]1[C@H]3[C@@H](OC(=O)/C=C/c2ccccc2)CC[C@@H]1OC(=O)/C=C/c1ccccc1', '> 100 µM'),
  ('COC(=O)[C@]1(C)CCC[C@]2(C)[C@H]3C[C@H]4C(C(C)C)=C[C@]3(CC[C@H]21)[C@@H]1C(=O)C=CC(=O)[C@@H]14', '2.9 µM'),
  ('COC(=O)[C@]1(C)CCC[C@]2(C)[C@H]3C[C@H]4C(C(C)C)=C[C@]3(CC[C@H]21)[C@@H]1/C(=N/OC(C)=O)CC[C@H](OC(C)=O)[C@@H]14', '2.5 µM');
